# TARGET ENTITY: YEATS4 (Homo sapiens, UniProt O95619)
# Sequence (O95619 15-158 limits assumed): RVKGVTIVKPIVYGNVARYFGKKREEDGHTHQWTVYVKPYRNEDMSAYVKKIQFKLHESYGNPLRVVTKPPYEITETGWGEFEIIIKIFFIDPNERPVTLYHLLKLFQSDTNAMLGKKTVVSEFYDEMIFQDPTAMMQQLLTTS
pIC50: −log10 of the molar value.
MEASURED PARAMETER: pIC50

compound_structure_string=C[C@H]1CCCN1Cc1nc2cc(NC(=O)c3ccc4c(cnn4C)c3)ccc2[nH]1 target_entity="YEATS4 (Homo sapiens, UniProt O95619)" reported_result="< 5.00"

* * *

# TARGET ENTITY: MLLT3 (Homo sapiens, UniProt P42568)
# Construct: in full length MLLT3 N-terminal NanoLuc, Histone; host or cells: HEK293
# Sequence (P42568 whole entry): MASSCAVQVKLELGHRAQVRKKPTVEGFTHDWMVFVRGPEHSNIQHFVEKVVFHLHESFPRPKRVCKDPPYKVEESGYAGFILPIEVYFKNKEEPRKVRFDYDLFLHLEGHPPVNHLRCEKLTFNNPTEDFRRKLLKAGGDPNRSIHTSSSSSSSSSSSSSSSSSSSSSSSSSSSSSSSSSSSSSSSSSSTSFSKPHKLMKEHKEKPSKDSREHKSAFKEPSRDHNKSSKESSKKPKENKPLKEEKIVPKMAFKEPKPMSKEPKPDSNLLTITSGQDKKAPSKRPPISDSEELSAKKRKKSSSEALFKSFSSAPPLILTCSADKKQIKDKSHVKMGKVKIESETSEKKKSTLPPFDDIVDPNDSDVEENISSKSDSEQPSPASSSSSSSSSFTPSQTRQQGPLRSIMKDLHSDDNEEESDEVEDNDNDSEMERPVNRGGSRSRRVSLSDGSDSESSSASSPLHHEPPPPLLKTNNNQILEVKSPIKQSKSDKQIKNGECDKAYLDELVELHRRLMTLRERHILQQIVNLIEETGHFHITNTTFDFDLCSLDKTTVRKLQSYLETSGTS
# METHOD DESCRIPTION: NanoBRET assay, full-length MLLT3-NanoLuc / histone H3.3-HaloTag in HEK293 cells
# Type: cell-based
# RUN CONDITIONS: 24 h, in the presence of 2.5 μM SAHA
pIC50: −log10 of the molar value.
Recorded measurements of pIC50, one per entry
MEASURED PARAMETER: pIC50

compound_structure_string=C[C@H]1CCCN1Cc1nc2cc(NC(=O)c3ccc4c(cnn4C)c3)ccc2[nH]1 measured_parameter=pIC50 reported_result=6.40
compound_structure_string=C[C@@H]1CCCN1Cc1nc2cc(NC(=O)c3ccc4c(cnn4C)c3)ccc2[nH]1 measured_parameter=pIC50 reported_result=5.24
